- Tested on: OV-56 (Ovarian Carcinoma)
- protocol summary: combination Emax (second highest fraction inhibited in the dose matrix, 72 h); higher = more inhibition; extreme values may be limits of the assay
Listed compounds paired with reported combination Emax
reported metric: combination Emax

• Cc1c2c(nn1C)CSCc1cc(n(C)n1)CSc1cc(c3ccccc3c1)OCCCc1c(C(=O)O)n(C)c3c-2c(Cl)ccc13 [AZD5991] + C[C@@H]1COCCN1C2=NC(=NC(=C2)C3(CC3)[S@](=N)(=O)C)C4=C5C=CNC5=NC=C4 [AZD6738] (first compound max 1 µM, 7x7, partner max 10 µM) = 0.558
• CC(=O)c1c(C)c2cnc(Nc3ccc(N4CCNCC4)cn3)nc2n(C2CCCC2)c1=O [Palbociclib] + Cn1cnc2c(F)c(Nc3ccc(Br)cc3Cl)c(C(=O)NOCCO)cc21 [Selumetinib] (first compound max 10 µM, 7x7, partner max 10 µM) = 0.141
• NC1(C(=O)N[C@@H](CCO)c2ccc(Cl)cc2)CCN(c2ncnc3[nH]ccc23)CC1 [Capivasertib] + C[C@@H]1COCCN1C2=NC(=NC(=C2)C3(CC3)[S@](=N)(=O)C)C4=C5C=CNC5=NC=C4 [AZD6738] (first compound max 10 µM, 7x7, partner max 10 µM) = 0.542
• NC1(C(=O)N[C@@H](CCO)c2ccc(Cl)cc2)CCN(c2ncnc3[nH]ccc23)CC1 [Capivasertib] + CC(=O)c1c(C)c2cnc(Nc3ccc(N4CCNCC4)cn3)nc2n(C2CCCC2)c1=O [Palbociclib] (first compound max 10 µM, 7x7, partner max 10 µM) = 0.41
• Cc1nc(Nc2ncc(C(=O)Nc3c(C)cccc3Cl)s2)cc(N2CCN(CCO)CC2)n1 [Dasatinib] + CC(=O)Nc1cccc(-n2c(=O)n(C3CC3)c(=O)c3c(Nc4ccc(I)cc4F)n(C)c(=O)c(C)c32)c1 [Trametinib] (first compound max 2 µM, 7x7, partner max 1 µM) = 0.446
• CC1(C)CCC(CN2CCN(c3ccc(C(=O)NS(=O)(=O)c4ccc(NCC5CCOCC5)c([N+](=O)[O-])c4)c(Oc4cnc5[nH]ccc5c4)c3)CC2)=C(c2ccc(Cl)cc2)C1 [Venetoclax] + CN(C)CCCOc1ccc(-c2ccc3ncc4c(c3c2)n(C2CCOCC2)c(=O)n4C)cn1 [AZD0156] (first compound max 1 µM, 7x7, partner max 1 µM) = 0.183
• COc1cc2c(cc1OCCCCCOc1cc3c(cc1OC)C(=O)N1C=C(C)C[C@H]1C=N3)N=C[C@@H]1CC(C)=CN1C2=O [SG3199] + O=C(c1cc(Cc2n[nH]c(=O)c3ccccc23)ccc1F)N1CCN(C(=O)C2CC2)CC1 [Olaparib] (first compound max 0.001 µM, 7x7, partner max 10 µM) = 0.131

====

- Tested on: FTC-133 (Thyroid Gland Carcinoma)
- protocol summary: combination Emax (second highest fraction inhibited in the dose matrix, 72 h); higher = more inhibition; extreme values may be limits of the assay
Listed compounds paired with reported combination Emax
reported metric: combination Emax

• C=CCn1c(=O)c2cnc(Nc3ccc(N4CCN(C)CC4)cc3)nc2n1-c1cccc(C(C)(C)O)n1 [AZD1775] + O=C(c1cc(Cc2n[nH]c(=O)c3ccccc23)ccc1F)N1CCN(C(=O)C2CC2)CC1 [Olaparib] (first compound max 1 µM, partner max 10 µM) = 0.602
• COc1cccc(OCCCN)c1-c1cc(Nc2cnc(C#N)cn2)n[nH]1 [Prexasertib] + CN(C)CCCOc1ccc(-c2ccc3ncc4c(c3c2)n(C2CCOCC2)c(=O)n4C)cn1 [AZD0156] (first compound max 1 µM, 7x7, partner max 1 µM) = 0.805
• Cn1cnc2c(F)c(Nc3ccc(Br)cc3Cl)c(C(=O)NOCCO)cc21 [Selumetinib] + CC(C)n1c(=O)n(C)c2cnc3cc(F)c(-c4ccc(OCCCN5CCCCC5)nc4)cc3c21 [AZD1390] (first compound max 10 µM, 7x7, partner max 0.3 µM) = 0.166
• COc1nnc2ccc(N3CCC(c4ccc(OCCN5CCN(C)C(=O)[C@H]5C)cc4)CC3)nn12 [AZD5153] + CC1(C)CCC(CN2CCN(c3ccc(C(=O)NS(=O)(=O)c4ccc(NCC5CCOCC5)c([N+](=O)[O-])c4)c(Oc4cnc5[nH]ccc5c4)c3)CC2)=C(c2ccc(Cl)cc2)C1 [Venetoclax] (first compound max 1 µM, 7x7, partner max 1 µM) = 0.578
